assay: High-throughput drug toxicity screening in the BPDCN cell line Gen2.2 (AID 1224824); details: Gen2.2 BPDCN cells; at 45.8 µM (top of the series) unless noted;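 note: cells exposed to compounds for 48 h before reading; 100% = DMSO and 0% = bortezomib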
Hi there, I'd appreciate the recorded cell viability, % of control (lower = more cytotoxic) for every entry that follows.
Numbers only, in %.

In the examples that follow, each entry is paired with its recorded cell viability, % of control (lower = more cytotoxic).
O=C1CCc2cc(OCCCCc3nnnn3C3CCCCC3)ccc2N1
137
O=c1ncn2nc(Sc3ccc(F)cc3F)ccc2c1-c1c(Cl)cccc1Cl
98.9
Cc1ccc(N(CC2=NCCN2)c2cccc(O)c2)cc1
80.5
OC(CCN1CCCCC1)(c1ccccc1)C1CC2C=CC1C2 (stereo unspecified)
127
Nc1nc2ccc(OC(F)(F)F)cc2s1
93.2

Dear colleague, could you please provide cell viability, % of control (lower = more cytotoxic) for the molecules listed below?
1. COc1cccc2cc(-c3nc(C4CCC(C(=O)O)CC4)n4ncnc(N)c34)[nH]c12 (stereo unspecified)
2. Cc1cc(-c2ccc(CC(=O)Nc3ccc(-c4cccnc4)cc3)cc2)ccn1
3. NC(=O)C1CCCc2c1[nH]c1ccc(Cl)cc21 (stereo unspecified)
4. CNC(=O)c1ccc(N2C(=S)N(c3ccc(C#N)c(C(F)(F)F)c3)C(=O)C2(C)C)cc1F
5. O=C(Nc1ccc(F)c(C(F)(F)F)c1)Nc1nnc(-c2ccncc2)s1
6. CCOC(=O)N[C@@H]1CC[C@@H]2[C@@H](C1)C[C@H]1C(=O)O[C@H](C)[C@H]1[C@@H]2C=Cc1ccc(-c2cccc(F)c2)cn1
7. CNC(=O)c1ccc(C)c(-n2c(C)cc(OCc3ccc(F)cc3F)c(Br)c2=O)c1
8. CCN(c1ccccc1)c1cc(NC)[n+](C)c(C)n1

Reply:
1. 5.49
2. 255
3. 67
4. 185
5. 131
6. 14.3
7. 140
8. 138

Dear colleague, could you please provide cell viability, % of control (lower = more cytotoxic) for the molecules listed below?
1. OCCn1cc(-c2cnc3nnn(Cc4ccc5ncccc5c4)c3n2)cn1
2. CS(=O)(=O)c1cccc(CNc2nc(Nc3ccc4c(c3)CCC(=O)N4)ncc2C(F)(F)F)c1
3. O=C(O)COCCN1CCN(C(c2ccccc2)c2ccc(Cl)cc2)CC1 (stereo unspecified)
4. O=C(C1CC1)N1CC[C@@H](Cn2c(-c3ccc(-c4ccc5occc5c4)cc3)nc3cnccc32)C1
5. Nc1nccc(-c2ccc3noc(-c4ccc(Cl)cc4)c3c2)n1
6. COc1ccc(-c2ccc3c(N4CCOC[C@H]4C)nc(N4CCOC[C@H]4C)nc3n2)cc1CO
7. C[C@@H]1CN(Cc2ccc(F)cc2)[C@@H](C)CN1C(=O)c1cc2c(C(=O)C(=O)N(C)C)cn(C)c2cc1Cl

Reply:
1: 140; 2: 13.6; 3: 178; 4: 133; 5: 68.4; 6: 11.3; 7: 160

Query: Could you tell me which cell viability, % of control (lower = more cytotoxic) is on file for O=c1[nH]cnc2[nH]ncc12 ?
Reply: 124

---

assay: Quantitative High-Throughput drug screen in 47 multiple myeloma cell lines against the NCATS MIPE library collection: OCIMY5_PLB cell viability assay (AID 1918988); settings: OCI-MY5 myeloma viability, ATP luminescence, 48 h; series mostly up to 45.8 µM; note: nearly all actives have a fitted effect of over 65% in size; note: potency is the fitted concentration of half-maximal effect
Records with an inconclusive call do not appear. Calls of active or inactive are those of the source. Calls come from the whole dose curve; as a rule, active = well fitted cell-killing curve with a large enough effect; inconclusive = small, poorly fitted or top-dose-only effect, or effect the other way; inactive = no such curve, though single readings can be large or run the other way.
readout_label: Potency

In the examples that follow, each entry is paired with its recorded Potency.
COc1ccc(-c2oc3cc(OC)ccc3c2C(=O)c2ccc(C#N)cc2)cc1
inactive
N#CC[C@H](C1CCCC1)n1cc(-c2ncnc3[nH]ccc23)cn1
20.9 µM (active)
CN(C)C(=O)c1ccc(S(=O)(=O)c2ccc(NC(=O)[C@@](C)(O)C(F)(F)F)c(Cl)c2)cc1
20.9 µM (active)
Cc1cc(SCc2sc(-c3ccc(C(F)(F)F)cc3)nc2C)ccc1OCC(=O)O
3.72 µM (active)
c1ccc([C@H]2CN3CCSC3=N2)cc1
inactive
O=c1[nH]c(-c2ccc(C(F)(F)F)cc2)nc2c1CSCC2
5.26 µM (active)

Dear colleague, could you please provide Potency for the molecules listed below?
1. COc1ccc(-c2ccc3c(N4CCOCC4)nc(N4C[C@@H](C)O[C@@H](C)C4)nc3n2)cc1CO
2. CC(C)C[C@H](NC(=O)[C@@H](O)[C@H](N)Cc1ccccc1)C(=O)O
3. C#Cc1cccc(Nc2ncnc3cc(OCCOC)c(OCCOC)cc23)c1

Reply:
1.48 µM (active)
26.4 µM (active)
5.9 µM (active)

Query: Could you tell me which Potency is on file for S=C(NCc1ccc2c(c1)OCO2)N1CCN(c2ncnc3c2oc2ccccc23)CC1 ?
Reply: 9.59 µM (active)
